- system.under.test: human His-tagged HPDL (4-hydroxyphenylpyruvate dioxygenase-like), recombinant, from expiSF9 insect cells (Homo sapiens, UniProt Q96IR7)
- Construct: His tag
- Sequence (Q96IR7 1-371): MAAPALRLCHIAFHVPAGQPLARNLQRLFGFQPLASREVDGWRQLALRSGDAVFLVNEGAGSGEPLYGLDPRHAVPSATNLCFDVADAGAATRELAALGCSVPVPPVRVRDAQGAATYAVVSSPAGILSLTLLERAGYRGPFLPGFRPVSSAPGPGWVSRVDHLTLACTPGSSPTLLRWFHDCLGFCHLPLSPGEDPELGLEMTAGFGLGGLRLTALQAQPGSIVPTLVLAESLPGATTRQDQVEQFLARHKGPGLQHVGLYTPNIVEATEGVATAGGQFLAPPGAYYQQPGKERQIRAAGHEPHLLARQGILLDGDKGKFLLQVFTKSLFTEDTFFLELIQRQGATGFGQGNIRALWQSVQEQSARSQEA
- assay.overview: Inhibition of HPDL activity: His-tagged HPDL incubated with HPPA at various inhibitor concentrations, 4HMA production followed by GC-MS
Please go through the items and note down their IC50.
Return type: number; implicit unit µM.

Request: Please report the recorded IC50 for CC(C)Cc1ccc(C(C)C(=O)O)cc1 (stereo not shown) .
Response: 16.6

Request: Please report the recorded IC50 for NCCc1ccc(O)c(O)c1 .
Response: 41.3
